Reference source for all entries: paper PMC3082971

Target: hVDAC2 (Homo sapiens)
Sequence (P45880 2-294): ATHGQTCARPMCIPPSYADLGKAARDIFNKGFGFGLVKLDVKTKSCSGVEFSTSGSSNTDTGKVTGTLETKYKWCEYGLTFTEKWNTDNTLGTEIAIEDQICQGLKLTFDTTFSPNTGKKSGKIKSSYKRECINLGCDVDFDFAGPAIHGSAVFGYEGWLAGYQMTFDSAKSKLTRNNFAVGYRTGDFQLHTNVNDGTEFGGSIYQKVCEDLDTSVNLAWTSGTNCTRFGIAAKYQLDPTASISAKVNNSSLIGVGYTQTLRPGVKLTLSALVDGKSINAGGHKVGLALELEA
Test: biochemical
pEC50: −log10 of the molar value.

[
  {
    "compound": "CCOc1ccccc1-n1c(C(C)N2CCN(C(=O)COc3ccc(Cl)cc3)CC2)nc2ccccc2c1=O (stereo not shown)",
    "pEC50": 7.28
  }
]
